Test system: K562
MEASUREMENT_NOTES: NCI tumour cell line growth inhibition, 48 h
Structures can show the parent of a compound that is named as a salt. Active and inactive are the calls of the source. Cut-off read from the data, not from the text of the source: active = GI50 up to about 1.1 µM and inactive = higher.

| COMPOUND | GI50 |
| --- | --- |
| Cc1c([N+](=O)[O-])oc2ccc3ccccc3c12 | 18.9 µM (inactive) |
| C#CC(O)/C=C/C(O)CCCC(O)CC#CC(O)C#CCCCCC(O)/C=C/CCCC(O)/C=C/CCCCCCCCCCCCCC(O)C(O)C#CC(=O)O (stereo unspecified) | > 25 µM (inactive) |
| CN1CCN(C2=NCCO2)CC1 | > 100 µM (inactive) |
| CC1=C(/C=C/Cl)CC(Cl)C(C)(Cl)C1 (stereo unspecified) | > 100 µM (inactive) |
| CN(C)CCC=C1c2ccccc2C=Cc2ccccc21 [CYCLOBENZAPRINE HYDROCHLORIDE] | 18.5 µM (inactive) |
| CN(/N=C/c1ccccn1)C1=NCCCN1 | > 100 µM (inactive) |
| Cc1nnc2n1N=C(c1cc(F)c(Cl)cc1Cl)/C(=C/c1ccc3c(c1)OCO3)S2 | > 100 µM (inactive) |
| CC(C)(C)c1cc(C2NCCO2)cc(C(C)(C)C)c1O (stereo unspecified) | > 100 µM (inactive) |
| COC(=O)C1CC2c3c(c4ccccc4n3C)CC(C1=O)N2C (stereo unspecified) | 40.1 µM (inactive) |
| O=C(O)CCSC(=S)Nc1ccc([N+](=O)[O-])cc1 | 27.2 µM (inactive) |
| Cc1ccc(S(=O)(=O)N/N=C2/C(=O)Nc3c(Cl)cc(Cl)cc32)cc1 | 72.1 µM (inactive) |

----------
Tested on: Malme-3M
MEASUREMENT_NOTES: NCI tumour cell line growth inhibition, 48 h
Structures can show the parent of a compound that is named as a salt. Activity calls are given as the source filed them. Rule as the data show it: active = GI50 up to about 1.1 µM and inactive = higher.
Classes used: 1 for active, -1 for inactive

| COMPOUND | MEASURED_ON | CATEGORY_LABEL |
| --- | --- | --- |
| CN(C)c1ccccc1CC(c1c[nH]c2ccccc12)c1c[nH]c2ccccc12 | Malme-3M | -1 |
| CC(C)(C)C(=C[S+]([O-])/N=C/c1ccccc1)C(C)(C)C (stereo not drawn) | Malme-3M | -1 |
| CCCCCCC(=O)OC[n+]1ccc2c(C)c3[nH]c4ccc(OC)cc4c3c(C)c2c1 | Malme-3M | 1 |
| COc1ccc(Nc2nc3ccc(C(F)(F)F)cc3nc2C(=O)O)cc1 | Malme-3M | -1 |
| Nc1nncc2c1ccn2C1OC(CO)C(O)C1O (stereo not drawn) | Malme-3M | -1 |
| CN1CCN(C2=NCCO2)CC1 | Malme-3M | -1 |
| CCCCCNC(=O)OC1CCn2c1nc1c2C(=O)C(C)=C(N2CC2)C1=O (stereo not drawn) | Malme-3M | -1 |
| O=C(NNC(=O)c1ccccc1O)c1cccs1 | Malme-3M | -1 |
| C/C(=N\NC(=S)N(C)C)c1nc2cccnc2[nH]1 | Malme-3M | -1 |
| OCc1cc2ccncc2c2c1[nH]c1ccccc12 | Malme-3M | -1 |
| CC(=O)Nc1ccc2c3c(cc(O)c2c1)N(C(=O)CCCCCCC(=O)Nc1ccc2c4c(cc(O)c2c1)N(C(=O)OC(C)(C)C)CC4CCl)CC3CCl (stereo not drawn) | Malme-3M | 1 |
| O=C1C(Cl)C(c2ccc([N+](=O)[O-])cc2)N1n1cnc2ccccc2c1=O (stereo not drawn) | Malme-3M | -1 |
| CC1=C(C(=O)Nc2ccccc2)C(c2cccc3ccccc23)C(C(=O)Nc2ccccc2)=C(C)N1 | Malme-3M | -1 |
| Cc1cccc2sc(NC(=O)c3cc([N+](=O)[O-])ccc3Cl)nc12 | Malme-3M | -1 |
| O=C1CCC2SC1CCC2=O | Malme-3M | -1 |
| CCOC(=O)C1C(O)CC2c3ccccc3-c3ccccc3C21 (stereo not drawn) | Malme-3M | -1 |
| N/C(=N\Nc1ccc(C(=O)O)cc1)c1cnccn1 | Malme-3M | -1 |
| Cc1ccc(S(=O)(=O)N/N=C2\C=CC3(CC2)C(=O)N(I)c2ccccc23)cc1 (stereo not drawn) | Malme-3M | 1 |
| Cc1c2cc[n+]([O-])cc2c(C)c2c1[nH]c1ccccc12 | Malme-3M | -1 |
| Cc1ccc(Nc2ccc(Nc3ccc(C)cc3)c3c2C(=O)c2c(O)ccc(O)c2C3=O)cc1 | Malme-3M | -1 |
| O=C1CC2(CCC(O)(c3ccccc3)C(C(=O)c3ccccc3)C2)C(=O)c2ccccc2N1 (stereo not drawn) | Malme-3M | -1 |
| CC(O)CC(O)(C(F)(F)F)C(F)(F)F (stereo not drawn) | Malme-3M | -1 |
| CCCCCCCCCCCCCCCCOP(=O)([O-])OCC[N+](C)(C)C1CC(C)(C)N(O)C(C)(C)C1 | Malme-3M | -1 |
| O=C(CNc1ccccc1[N+](=O)[O-])Nn1cnc2ccc(S(=O)(=O)Nc3ccccc3[N+](=O)[O-])cc2c1=O | Malme-3M | -1 |
| O=c1[nH]c2ccc([N+](=O)[O-])cc2nc1/C(=N/Nc1ccccc1)C(O)c1ccco1 (stereo not drawn) | Malme-3M | -1 |
| CC(C)c1cc(C(C)C)c(B(c2ccccc2)c2ccccc2)c(C(C)C)c1Br | Malme-3M | -1 |
| NC(=O)NC1C(c2ccccc2)=C1c1ccccc1 | Malme-3M | -1 |
| O=[N+]([O-])c1cc(Br)cc2cc(Cl)cnc12 | Malme-3M | -1 |
| N=C1CSC2=NC3=C(CCC/C3=C\c3ccccc3)C(c3ccccc3)N12 (stereo not drawn) | Malme-3M | -1 |
| CN(C)CCC=C1c2ccccc2C=Cc2ccccc21 [CYCLOBENZAPRINE HYDROCHLORIDE] | Malme-3M | -1 |
| O=C1CCC(C(=O)O)C2=C1CCCC2 (stereo not drawn) | Malme-3M | -1 |
| O=C(NNCc1ccc(Cl)cc1)Nc1cccc2ccccc12 | Malme-3M | -1 |
| O=C1C=C(c2c(-c3ccccc3)[nH]c3ccccc23)C(=O)N1c1ccccc1 | Malme-3M | -1 |
| O=C(COc1ccc(OCC(=O)N2C(=O)CC/C2=N\c2ccc(Cl)cc2)cc1)N1C(=O)CS/C1=N\c1ccc(Cl)cc1 | Malme-3M | -1 |
| CC1=NC2(C(=O)O)C3(C(=O)O)N=C(C)OC3(C(F)(F)F)C2(C(F)(F)F)O1 (stereo not drawn) | Malme-3M | -1 |
| C=C1CC(C)(COc2cc(=O)oc3ccccc23)OC1=O (stereo not drawn) | Malme-3M | -1 |
| O=[N+]([O-])c1ccc(C2=NOC(c3ccccc3)N2C23CC4CC(CC(C4)C2)C3)cc1 (stereo not drawn) | Malme-3M | -1 |
| COC1(O)C(=O)c2ccccc2OC1(OC)c1ccccc1 (stereo not drawn) | Malme-3M | -1 |
| CN(C)c1ccc(/C=c2/c3ccccc3n3c2cc(C24CC5CC(CC(C5)C2)C4)[n+]3C)cc1 | Malme-3M | 1 |
| Cn1c(=O)nc2n(-c3ccc(Cl)c(C(F)(F)F)c3)c3ccccc3nc-2c1=O | Malme-3M | -1 |
| CC1=NNC(=O)C1C1CC(c2c[nH]c3ccccc23)=NN(c2ccccc2)C1=O (stereo not drawn) | Malme-3M | -1 |
| COC(=O)/C(Cl)=C1/CC1COCc1ccccc1 (stereo not drawn) | Malme-3M | -1 |
| CC(=O)OCC1OC(NC(=S)Nn2c(-c3ccccc3)nc3ccccc3c2=O)C(OC(C)=O)C(OC(C)=O)C1OC(C)=O (stereo not drawn) | Malme-3M | -1 |

----------
Tested on: OVCAR-8
MEASUREMENT_NOTES: NCI tumour cell line growth inhibition, 48 h
Active and inactive are the calls of the source. Cut-off read from the data, not from the text of the source: active = GI50 up to about 1.1 µM and inactive = higher.
Below is a list of entries, each paired with its recorded GI50 value.

| COMPOUND | MEASURED_ON | GI50 |
| --- | --- | --- |
| CC(C)CCCC(C)[C@H]1CCC2[C@@H]3CCC4Cc5nc6c(nc5C[C@]4(C)C3CC[C@@]21C)CC1CC[C@@H]2C(C[C@@H](O)[C@@]3(C)C2C[C@@H]2OC4(CCC(C)CO4)C(C)[C@@H]23)[C@@]1(C)C6 (some centres undefined) | OVCAR-8 | > 100 µM (inactive) |
| NC(CC(=O)Nc1cc(C(F)(F)F)ccc1Cl)=NO | OVCAR-8 | > 100 µM (inactive) |
| O=C(O)CN(c1ccc(Cl)cc1)S(=O)(=O)c1ccccc1 | OVCAR-8 | > 100 µM (inactive) |
| O=C(/C=C/c1cccc(Br)c1)N1CCN(CCOC(c2ccccc2)c2ccccc2)CC1 | OVCAR-8 | 55.5 µM (inactive) |

----------
Tested on: ACHN
MEASUREMENT_NOTES: NCI tumour cell line growth inhibition, 48 h
The source made the active and inactive calls. No stated cut-off is given here; in the data, active = GI50 up to about 1.1 µM and inactive = higher. Square brackets hold non-standard residues; d marks the D form. Peptide text beside a SMILES is read from it. * marks the point of attachment. X26 = COC1=CC(=O)N(C(=O)[C@@H](O*)C(C)C)[C@H]1Cc1ccccc1; NMeV = CN[C@H](C(=O)O)C(C)C; Hexanoyl = CCCCCC(=O)*
Classes used: active, inactive

| MOLECULE | MEASURED_ON | CATEGORY_LABEL |
| --- | --- | --- |
| CC1(C)CC2(C)CC1CC2NC(=O)CCN1CCOCC1 (stereo unspecified) | ACHN | inactive |
| COC1=CC(=O)c2c(O)c3c(c(O)c2C1=O)C[C@](C)(O)C[C@@H]3O | ACHN | inactive |
| N#Cc1ccc(/N=N/N2CCCC2)cc1 | ACHN | inactive |
| O=c1[nH]c2ccc([N+](=O)[O-])cc2nc1/C(=N/Nc1ccccc1)C(O)c1ccco1 (stereo unspecified) | ACHN | inactive |
| O=c1c2ccccc2sc2ccccc12 | ACHN | inactive |
| O=c1[nH]c(=O)n(CCOc2ccccc2)cc1Nc1ccccc1 | ACHN | inactive |
| Cc1cc(C)n(CN(CCCCO)Cn2nc(C)cc2C)n1 | ACHN | inactive |
| CCOP(=O)(OCC)C1CC(C)OC1=O (stereo unspecified) | ACHN | inactive |
| N#Cc1c(N2CCCC2)nsc1NCc1ccccc1 | ACHN | inactive |
| O=C(Nc1ccc(Cl)cc1Cl)C(=O)C(C(=O)c1ccncc1)C1OC(=O)c2ccccc21 (stereo unspecified) | ACHN | inactive |
| COc1ccc2nc3cc(Cl)ccc3c(NCCCN(Cc3cc(OC)c(OC)c(OC)c3)Cc3cc(OC)c(OC)c(OC)c3)c2c1 | ACHN | inactive |
| CC(C)OP(=O)(OC(C)C)/C(=N/Nc1ccc([N+](=O)[O-])cc1)Nc1ccccc1 | ACHN | inactive |
| Cc1ncc2c(=O)c3c(oc2n1)c1ccccc1n3Cc1ccccc1 | ACHN | inactive |
| COc1cc2c(cc1OC)C1C(O)C(OC)C=C3CC[N+](C)(C2)C31 (stereo unspecified) | ACHN | inactive |
| Cc1ccc(S(=O)(=O)NNC(=O)c2cc(C)ccc2NC(=O)C23CC4CC(CC(C4)C2)C3)cc1 | ACHN | inactive |
| CC(C)(C)c1cc[n+](C[n+]2ccc(C(C)(C)C)cc2)cc1 | ACHN | inactive |
| N#Cc1cc(-c2nc3ccc(F)cc3s2)ccc1N | ACHN | inactive |
| CN(/N=C(\C(=O)O)c1ccccc1)C1=NCCCN1 | ACHN | inactive |
| COc1ccc(-c2csc(Cc3nc4ccccc4c(=O)n3-c3ccc(Cl)cc3)n2)cc1 | ACHN | inactive |
| CN1CC(=O)N(C)c2ncn(Cc3ccccc3)c2C1=O | ACHN | inactive |
| Cc1cnc2[nH]c(-c3ccccc3)cc(=O)c2c1 | ACHN | active |
| Nc1ccc(S2(c3ccc(N)cc3)C=C(c3ccccc3)C(c3ccccc3)=C2)cc1 | ACHN | inactive |
| c1cc2ccc1C1NCCCN1CCN1CCCNC1c1ccc(cc1)C1NCCCN1CCN1CCCNC21 (stereo unspecified) | ACHN | inactive |
| COc1ccc(CC2=NCCc3cc(OC)c(OC)cc32)cc1Br | ACHN | inactive |
| CCCCCCC(=O)OC[n+]1ccc2c(C)c3[nH]c4ccc(OC)cc4c3c(C)c2c1 | ACHN | active |
| COc1ccc2c(C)cc(N/N=C/c3ccc(C)s3)nc2c1 | ACHN | inactive |
| CCCCCC(=O)N[C@H](C(=O)N[C@H](C(=O)N(C)[C@H](C(=O)N1CCC[C@H]1C(=O)N1CCC[C@H]1C(=O)O[C@H](C(=O)N1C(=O)C=C(OC)[C@@H]1Cc1ccccc1)C(C)C)C(C)C)C(C)C)C(C)C (Hexanoyl-VV[NMeV]PP-X26) | ACHN | inactive |
| CC(=O)OCC1OC(c2nc3ccccc3s2)=CC(OC(C)=O)C1OC(C)=O (stereo unspecified) | ACHN | inactive |
| O=C(O)CN(c1ccc(Cl)cc1)S(=O)(=O)c1ccccc1 | ACHN | inactive |
| C=CCN1C[C@H](C)N([C@@H](c2ccc(C(=O)N3CCCCC3)cc2)c2cccc(OC)c2)C[C@H]1C | ACHN | inactive |
| OCc1cc2ccncc2c2c1[nH]c1ccccc12 | ACHN | inactive |
| CC1=NN(C(=O)Cc2ccccc2)C(=O)/C1=C\c1ccc(O)cc1 | ACHN | inactive |
| Nc1ncnc2c1ncn2C1OC(CO)C(O)C(O)C1O (stereo unspecified) | ACHN | inactive |
| COC(=O)C(=O)C(C(=O)C1=NS(=O)(=O)c2cc(S(N)(=O)=O)c(Cl)cc2N1)c1nc2ccc(C(=O)c3ccccc3)cc2nc1O (stereo unspecified) | ACHN | inactive |
| COC(=O)/C(Cl)=C1/CC1COCc1ccccc1 (stereo unspecified) | ACHN | inactive |
| CN(C)NC1=NS(=O)(=O)c2cc3c(=O)n(C)[nH]c3cc2S1 | ACHN | inactive |
| CCN(CC)CCCNc1nnc(C)c2[nH]c3ccccc3c12 | ACHN | inactive |
| Cc1ccc(-c2cc(N)n(-c3nc4c([nH]3)c(=O)n(C)c(=O)n4C)n2)cc1 | ACHN | inactive |
| NS(=O)(=O)c1nnc(NC(=O)c2cccc([N+](=O)[O-])c2)s1 | ACHN | inactive |
| NC(=O)NC1C(c2ccccc2)=C1c1ccccc1 | ACHN | inactive |
| CCOC(=O)NN(C(=O)OCC)C(=C(c1ccccc1)N1CCOCC1)N(NC(=O)OCC)C(=O)OCC | ACHN | inactive |
